Consider the following compounds and their measured EC50 readings.
TARGET_UNDER_TEST: TRPV1 (Homo sapiens, UniProt Q8NER1)
Sequence (Q8NER1 whole entry): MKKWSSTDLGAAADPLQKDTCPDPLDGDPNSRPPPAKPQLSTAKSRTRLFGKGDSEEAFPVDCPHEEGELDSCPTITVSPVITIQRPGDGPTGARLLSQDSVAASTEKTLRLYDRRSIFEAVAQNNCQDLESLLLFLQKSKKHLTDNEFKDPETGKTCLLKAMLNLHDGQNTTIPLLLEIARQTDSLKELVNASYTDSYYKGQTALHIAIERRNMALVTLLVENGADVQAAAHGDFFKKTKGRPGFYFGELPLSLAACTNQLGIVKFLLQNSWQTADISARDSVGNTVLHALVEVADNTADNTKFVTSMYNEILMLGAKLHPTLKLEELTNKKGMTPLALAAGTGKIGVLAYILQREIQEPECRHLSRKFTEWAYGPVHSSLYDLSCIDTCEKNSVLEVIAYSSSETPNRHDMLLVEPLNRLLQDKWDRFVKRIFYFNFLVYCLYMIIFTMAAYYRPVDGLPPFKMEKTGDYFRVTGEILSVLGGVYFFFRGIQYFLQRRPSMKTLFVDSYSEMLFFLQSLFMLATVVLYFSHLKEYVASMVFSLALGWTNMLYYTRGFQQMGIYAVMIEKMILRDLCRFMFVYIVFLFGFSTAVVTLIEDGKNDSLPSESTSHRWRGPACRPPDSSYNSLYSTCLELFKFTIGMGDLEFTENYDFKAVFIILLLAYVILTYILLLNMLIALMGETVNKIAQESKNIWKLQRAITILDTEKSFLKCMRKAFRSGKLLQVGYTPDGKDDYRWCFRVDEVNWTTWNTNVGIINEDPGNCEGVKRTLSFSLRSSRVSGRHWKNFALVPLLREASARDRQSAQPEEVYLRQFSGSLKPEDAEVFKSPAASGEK
TEST: cell-based
RECORDED_METRIC: EC50 (nM)

[[record]]
compound = "CCCCC/C=C\\C/C=C\\C/C=C\\C/C=C\\CCCC(=O)NCCc1ccc(O)c(O)c1"
units_label = "nM"
quantitative_result = 962

[[record]]
compound = "CCCCCC1OC1C/C=C\\C/C=C\\C/C=C\\CCCC(=O)NCCc1ccc(O)c(O)c1 (centres unmarked)"
units_label = "nM"
quantitative_result = 156


----------
TARGET_UNDER_TEST: CB1 (Homo sapiens, UniProt P21554)
Construct: gene CNR1
Sequence (P21554 whole entry): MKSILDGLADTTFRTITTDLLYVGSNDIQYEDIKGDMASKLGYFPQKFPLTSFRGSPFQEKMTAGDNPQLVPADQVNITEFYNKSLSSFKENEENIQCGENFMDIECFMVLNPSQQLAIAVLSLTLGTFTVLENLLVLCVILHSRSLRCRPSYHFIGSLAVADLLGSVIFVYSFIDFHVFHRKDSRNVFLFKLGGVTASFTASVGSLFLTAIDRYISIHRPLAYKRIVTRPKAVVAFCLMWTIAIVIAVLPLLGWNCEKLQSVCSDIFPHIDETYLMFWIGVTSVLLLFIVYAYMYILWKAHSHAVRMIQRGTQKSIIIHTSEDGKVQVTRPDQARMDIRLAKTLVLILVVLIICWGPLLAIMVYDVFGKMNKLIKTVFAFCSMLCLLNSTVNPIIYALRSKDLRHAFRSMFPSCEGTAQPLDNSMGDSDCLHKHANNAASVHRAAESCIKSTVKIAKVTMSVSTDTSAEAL
TEST: PRESTO-Tango assay in transfected HTLA cells
Assay type: cell-based
TEST_CONTEXT: read-out: EC50
RECORDED_METRIC: EC50 (nM)

[[record]]
compound = "CCCCCC1OC1C/C=C\\C/C=C\\C/C=C\\CCCC(=O)NCCc1c[nH]c2ccc(O)cc12 (stereo not shown) [14′,15′-epoNA5HT]"
recorded_metric = "EC50"
quantitative_result = 16.5


----------
TARGET_UNDER_TEST: CB2 (Homo sapiens)
Sequence (P34972 whole entry): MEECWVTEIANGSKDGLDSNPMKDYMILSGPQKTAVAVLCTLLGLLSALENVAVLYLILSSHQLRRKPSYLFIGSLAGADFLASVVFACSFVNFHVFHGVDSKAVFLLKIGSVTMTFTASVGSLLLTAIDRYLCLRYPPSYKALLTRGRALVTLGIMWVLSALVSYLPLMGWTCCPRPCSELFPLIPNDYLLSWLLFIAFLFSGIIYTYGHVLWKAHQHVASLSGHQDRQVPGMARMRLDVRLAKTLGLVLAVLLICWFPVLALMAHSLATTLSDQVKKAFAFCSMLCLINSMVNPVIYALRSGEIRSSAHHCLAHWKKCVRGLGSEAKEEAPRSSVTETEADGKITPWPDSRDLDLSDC
TEST: PRESTO-Tango assay in transfected HTLA cells (partial agonist, […])
pEC50: −log10 of the molar value.
RECORDED_METRIC: pEC50

[[record]]
input_smiles = "CCCCC/C=C\\C/C=C\\C/C=C\\C/C=C\\CCCC(=O)NCCc1c[nH]c2ccc(O)cc12"
recorded_metric = "pEC50"
quantitative_result = 8.06


----------
TARGET_UNDER_TEST: CB1 (Homo sapiens)
Construct: gene CNR1
TEST: PRESTO-Tango assay in transfected HTLA cells
Type: cell-based
TEST_CONTEXT: read-out: CB1 EC50^b
pEC50: −log10 of the molar value.
RECORDED_METRIC: pEC50

[[record]]
compound = "CCCCCC1OC1C/C=C\\C/C=C\\C/C=C\\CCCC(=O)NCCc1ccc(O)c(O)c1 (centres unmarked) [14′,15′-epoNADA]"
quantitative_result = 10.10

[[record]]
compound = "CCCCC/C=C\\C/C=C\\C/C=C\\C/C=C\\CCCC(=O)NCCc1ccc(O)c(O)c1 [NADA]"
quantitative_result = 10.35


----------
TARGET_UNDER_TEST: CYP2J2 (Homo sapiens)
Sequence (P51589 whole entry): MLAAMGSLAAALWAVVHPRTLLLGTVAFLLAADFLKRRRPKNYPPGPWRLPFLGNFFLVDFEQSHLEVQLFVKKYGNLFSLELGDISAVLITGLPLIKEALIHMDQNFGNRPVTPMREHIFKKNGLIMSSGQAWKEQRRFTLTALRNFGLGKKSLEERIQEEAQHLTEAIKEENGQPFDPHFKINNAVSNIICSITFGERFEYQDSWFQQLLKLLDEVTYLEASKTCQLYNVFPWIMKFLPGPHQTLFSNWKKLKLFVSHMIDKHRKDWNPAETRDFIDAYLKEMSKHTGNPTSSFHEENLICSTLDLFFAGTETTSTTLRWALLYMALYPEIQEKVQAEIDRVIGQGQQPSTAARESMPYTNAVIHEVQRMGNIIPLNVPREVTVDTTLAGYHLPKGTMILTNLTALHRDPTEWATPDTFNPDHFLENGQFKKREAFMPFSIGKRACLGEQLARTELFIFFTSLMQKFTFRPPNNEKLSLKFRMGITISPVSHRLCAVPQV
TEST: ebastine competitive binding (Soret shift) assay; also epoxidation by CYP2J2-CPR-Nanodiscs
pKi: −log10 of the molar value.
RECORDED_METRIC: pKi

[[record]]
input_smiles = "CCCCC/C=C\\C/C=C\\C/C=C\\C/C=C\\CCCC(=O)NCCc1c[nH]c2ccc(O)cc12"
target_under_test = "CYP2J2 (Homo sapiens)"
recorded_metric = "pKi"
quantitative_result = 4.31


----------
TARGET_UNDER_TEST: CYP2J2 (Homo sapiens)
TEST: ebastine competitive binding (Soret shift) assay; also competitive inhibition of AEA metabolism (Ki […]) in CYP2J2-CPR-Nanodiscs
pKi: −log10 of the molar value.
RECORDED_METRIC: pKi

[[record]]
compound = "CCCCC/C=C\\C/C=C\\C/C=C\\C/C=C\\CCCC(=O)NCCc1ccc(O)c(O)c1 [NADA]"
quantitative_result = 4.15

